System: MDA-MB-231 breast
TEST_PROTOCOL: NCI tumour cell line growth inhibition, 48 h
Please go through the items and note down their log10(TGI).
Answers are given as log10 of TGI in µM.

Below, 3 molecules whose answers are already recorded.
COc1cc2c(cc1C)NC(=O)/C2=C\c1cccc(Oc2ccccc2)c1 : 1.57
CCc1ccc2nc(-c3ccc(O)cc3)sc2c1 : 1.48
C[C@@H](CO)[C@@H]1CCC=C2CC[C@]3(C)[C@H](CC[C@@H]4[C@@]5(C)CCCNC(C)(C)[C@@H]5CC[C@]43C)[C@H]21 : 0.61

Consider the following items and state reported log10(TGI) for each.
1. COc1cc2c(cc1Nc1nc(Nc3ccsc3C(N)=O)c3cc[nH]c3n1)N(C(=O)CN(C)C)CCC2(C)C
2. Cn1ccnc1C(=O)/C=C/c1ccccc1
3. O=C(/C=C/c1cc(O)c(O)cc1O)OCCc1ccccc1
4. COc1ccc(Nc2c3ccccc3nc3ccccc23)cc1
5. COc1cc(/C=C/C(=O)c2c(C)nc3ccccc3c2C)ccc1OCCCOc1cc2c(cc1OC)C(=O)N1CCC[C@H]1C=N2

1: 0.87; 2: 1.23; 3: 1.58; 4: 1.29; 5: -1.01

For every listed record, write down its log10(TGI).
1. Cc1occc1C(=S)Nc1ccc(Cl)c(C(=O)OC(C)C2CC2)c1 (stereo not drawn)
2. CC(=O)O[C@@H]1C2=C(C)C=C(O2)[C@H]2O[C@]2(C)C[C@H]2C=C(C(=O)O2)[C@H](OC(C)=O)CC1[C@@]1(C)CO1 (stereo partly drawn)

1. 1.66
2. 1.90

Answer for every listed entry: what is its log10(TGI)? The entries follow.
1. COc1ccc2c(c1)C(=O)c1c-2c(Nc2ccc(Cl)cc2)nc2ccccc12
2. CCCCN1C(=O)c2c(-c3sccc3N)sc(-c3sccc3N)c2C1=O
3. CCCCCCCCCCCCCC[n+]1ccc2c(C)c3c(c(C)c2c1)c1cc(O)ccc1n3CC
4. CCCCCCCCCCCCCC[S+](C)C

[1.28, 1.99, 0.32, 0.67]

For each entry beneath this line, provide reported log10(TGI).
1. CC1(C)[C@@H](O[C@@H]2OC[C@@H](O[C@@H]3O[C@H](CO)[C@@H](O)[C@H](O)[C@H]3O[C@@H]3OC[C@@H](O)[C@H](O)[C@H]3O)[C@H](O)[C@H]2O[C@@H]2O[C@H](CO)[C@@H](O)[C@H](O)[C@H]2O)CC[C@]2(C)[C@H]3CC[C@]45OC[C@@]6(CC[C@](C)(C=O)C[C@H]64)[C@H](O)C[C@@]5(C)[C@]3(C)CC[C@@H]12
2. N=C(N)SCc1ccc(Cl)cc1Cl (tested in a mixture with another compound)

0.28
1.40

Tell me its log10(TGI) given O=C1/C(=C/c2ccccc2O)N=C(c2ccccc2)N1c1nc2ccccc2s1 as the entry.
1.98
